# reported EC15; entries follow
System: NCI-H1299 cells
Experiment: Induction of polyploidy in H1299
Format: cell-based, Human
Details: Homo sapiens; NCI-H1299, 48 hours; read-out: EC15 (concentration of inhibitor necessary to induce polyploidy in 15% of cells)

Example entries and their recorded answers appear below.
COMPOUND SMILES: CN(C)CC(=O)N1CCC(n2cc(Nc3ncc(Cl)c(N[C@H]4[C@@H](C(N)=O)[C@@H]5C=C[C@H]4C5)n3)cn2)CC1
EC15: < 100 nM
--
COMPOUND SMILES: CC(C)CCn1cc(Nc2ncc(Br)c(N[C@H]3[C@@H](C(N)=O)[C@@H]4C=C[C@H]3C4)n2)cn1
EC15: < 100 nM
--
COMPOUND SMILES: NC(=O)[C@@H]1[C@H](Nc2nc(Nc3cnn(C[C@@H](O)CO)c3)ncc2Cl)[C@H]2C=C[C@@H]1C2
EC15: < 100 nM

Note: attention shifts to another entry.
Suppose we examine the molecule `NC(=O)[C@@H]1[C@H](Nc2nc(Nc3cnn([C@@H]4CCOC4)c3)ncc2Cl)[C@H]2C=C[C@@H]1C2` ; what EC15 value has been reported?
< 100 nM
